// reported Inhibition for each item listed
- System: Trichophyton benhamiae
- method_notes: Antifungal activity against Trichophyton mentagrophytes
- Type: functional, trychophyton mentagrophytes

Worked examples follow.
{"compound": "Clc1ccc(C2(Cn3ccnc3)OCC(Cc3ccc(Br)cc3)O2)c(Cl)c1 (stereo not drawn)", "observation_type": "Inhibition", "result": "<1 µg/mL"}
{"compound": "Brc1ccc(C2COC(Cn3ccnc3)(c3ccc(Br)cc3)O2)cc1 (stereo not drawn)", "observation_type": "Inhibition", "result": "<1 µg/mL"}

Moving on to another compound below.
The compound identified as Cc1ccc(C2(Cn3ccnc3)OCC(c3ccccc3Cl)O2)cc1 (stereo not drawn) registered its Inhibition at <1 µg/mL

----------
// reported Inhibition for each item listed
- System: Candida albicans
- method_notes: Antifungal activity against Candida albicans
- Type: functional
Please respond with the number in µg/mL and leave the unit unwritten.

Worked examples follow.
{"compound": "Clc1ccc(CC2COC(Cn3ccnc3)(c3ccc(Cl)cc3Cl)O2)cc1 (stereo not drawn)", "Inhibition [µg/mL]": 10}
{"compound": "Cc1ccc(CC2COC(Cn3ccnc3)(c3ccc(Cl)cc3Cl)O2)cc1 (stereo not drawn)", "Inhibition [µg/mL]": 10}
{"compound": "Fc1ccc(C2COC(Cn3ccnc3)(c3ccc(Br)cc3)O2)cc1 (stereo not drawn)", "Inhibition [µg/mL]": 100}

The compound identified as Cc1ccc(C2COC(Cn3ccnc3)(c3ccc(Cl)cc3)O2)cc1 (stereo not drawn) registered its Inhibition at 100

The compound identified as Clc1ccccc1C1(Cn2ccnc2)OCC(c2ccc(Br)cc2)O1 (stereo not drawn) registered its Inhibition at 100

----------
- System: Candida tropicalis
- method_notes: Antifungal activity against Candida tropicalis
- Format: functional
observation_type: Inhibition

{"compound": "Cc1ccc(C2COC(Cn3ccnc3)(c3ccc(Br)cc3)O2)cc1 (centres undefined)", "observation_type": "Inhibition", "result": ">100 µg/mL"}
{"compound": "Clc1ccc(C2(Cn3ccnc3)OCC(Cc3ccc(Br)cc3)O2)c(Cl)c1 (centres undefined)", "observation_type": "Inhibition", "result": ">100 µg/mL"}
{"compound": "Fc1ccc(CC2COC(Cn3ccnc3)(c3ccc(Cl)cc3Cl)O2)cc1 (centres undefined)", "observation_type": "Inhibition", "result": "100 µg/mL"}
{"compound": "Clc1ccc(CCC2COC(Cn3ccnc3)(c3ccc(Cl)cc3Cl)O2)cc1 (centres undefined)", "observation_type": "Inhibition", "result": "10 µg/mL"}
{"compound": "Clc1ccc(C2(Cn3ccnc3)OCC(c3ccccc3)O2)cc1 (centres undefined)", "observation_type": "Inhibition", "result": ">100 µg/mL"}
{"compound": "Fc1ccc(C2COC(Cn3ccnc3)(c3ccc(Cl)cc3)O2)cc1 (centres undefined)", "observation_type": "Inhibition", "result": "100 µg/mL"}
{"compound": "Clc1ccc(C2(Cn3ccnc3)OCC(c3ccccc3)O2)c(Cl)c1 (centres undefined)", "observation_type": "Inhibition", "result": ">100 µg/mL"}
{"compound": "Clc1ccc(C2(Cn3ccnc3)OCC(CCc3ccc(-c4ccccc4)cc3)O2)c(Cl)c1 (centres undefined)", "observation_type": "Inhibition", "result": ">100 µg/mL"}

Moving on to another compound below.
The compound identified as Cc1ccc(C2(Cn3ccnc3)OCC(c3ccc(Cl)cc3Cl)O2)cc1 (centres undefined) registered its Inhibition at >100 µg/mL

----------
- Tested on: Candida tropicalis
- method_notes: Antifungal activity against Candida tropicalis
- Assay type: functional
observation_type: Inhibition (µg/mL)
Please respond with the number in µg/mL and leave the unit unwritten.

Worked examples follow.
{"molecule": "Fc1ccc(C2COC(Cn3ccnc3)(c3ccc(Br)cc3)O2)cc1 (stereo unspecified)", "measure_unit": "µg/mL", "Inhibition": 100}
{"molecule": "Clc1ccc(C2COC(Cn3ccnc3)(c3ccccc3)O2)cc1 (stereo unspecified)", "measure_unit": "µg/mL", "Inhibition": 100}
{"molecule": "Clc1ccccc1C1(Cn2ccnc2)OCC(c2ccc(Br)cc2)O1 (stereo unspecified)", "measure_unit": "µg/mL", "Inhibition": 10}
{"molecule": "Clc1ccc(C2COC(Cn3ccnc3)(c3ccc(Br)cc3)O2)cc1 (stereo unspecified)", "measure_unit": "µg/mL", "Inhibition": 100}

The molecule identified as Clc1ccc(CC2COC(Cn3ccnc3)(c3ccc(Cl)cc3Cl)O2)cc1 (stereo unspecified) registered its Inhibition at 10

----------
- System: Candida albicans
- method_notes: Antifungal activity against Candida albicans
- Format: functional
// reported Inhibition for each item listed

Worked examples follow.
{"molecule": "COc1ccc(CCC2COC(Cn3ccnc3)(c3ccc(Cl)cc3Cl)O2)cc1 (stereo unspecified)", "result": "100 µg/mL"}
{"molecule": "COc1ccc(C2(Cn3ccnc3)OCC(c3ccc(Cl)cc3)O2)cc1 (stereo unspecified)", "result": ">100 µg/mL"}
{"molecule": "Clc1ccc(C2(Cn3ccnc3)OCC(c3ccc(Cl)cc3Cl)O2)cc1 (stereo unspecified)", "result": "100 µg/mL"}
{"molecule": "Clc1ccc(C2(Cn3ccnc3)OCC(c3ccc(Br)cc3)O2)cc1 (stereo unspecified)", "result": "10 µg/mL"}
{"molecule": "Clc1ccc(C2(Cn3ccnc3)OCC(c3ccc(Br)cc3)O2)c(Cl)c1 (stereo unspecified)", "result": "100 µg/mL"}
{"molecule": "Clc1ccc(C2COC(Cn3ccnc3)(c3ccccc3Cl)O2)cc1 (stereo unspecified)", "result": "100 µg/mL"}

Summary line: Clc1cccc(C2(Cn3ccnc3)OCC(c3ccc(Cl)cc3Cl)O2)c1 (stereo unspecified) , Candida albicans, reported Inhibition = 100 µg/mL

Summary line: Clc1ccc(CCC2COC(Cn3ccnc3)(c3ccc(Cl)cc3Cl)O2)cc1 (stereo unspecified) , Candida albicans, reported Inhibition = 10 µg/mL

Summary line: Clc1ccc(C2(Cn3ccnc3)OCC(Cc3ccccc3)O2)c(Cl)c1 (stereo unspecified) , Candida albicans, reported Inhibition = 100 µg/mL

Summary line: Clc1ccc(C2(Cn3ccnc3)OCC(c3ccccc3)O2)c(Cl)c1 (stereo unspecified) , Candida albicans, reported Inhibition = 100 µg/mL

Summary line: Clc1ccc(C2(Cn3ccnc3)OCC(c3ccccc3)O2)cc1 (stereo unspecified) , Candida albicans, reported Inhibition = 100 µg/mL

Summary line: Cc1ccc(C2(Cn3ccnc3)OCC(c3ccc(Cl)cc3Cl)O2)cc1 (stereo unspecified) , Candida albicans, reported Inhibition = >100 µg/mL

----------
- System: Mucor
- method_notes: Antifungal activity against Mucor species
- Assay type: functional
// reported Inhibition for each item listed
Please respond with the number in µg/mL and leave the unit unwritten.

{"molecule": "Clc1ccc(C2(Cn3ccnc3)OCC(c3ccc(Br)cc3)O2)cc1 (stereo not given)", "Inhibition, µg/mL": 10}
{"molecule": "Cc1ccc(C2(Cn3ccnc3)OCC(c3ccc(Cl)cc3)O2)cc1 (stereo not given)", "Inhibition, µg/mL": 10}

Moving on to another molecule below.
The molecule identified as Clc1ccc(C2COC(Cn3ccnc3)(c3ccccc3)O2)c(Cl)c1 (stereo not given) registered its Inhibition at 100

----------
- Test system: Candida albicans
- method_notes: Antifungal activity against Candida albicans
- Format: functional
observation_type: Inhibition

{"compound": "Clc1ccc(C2(Cn3ccnc3)OCC(CCc3ccc(-c4ccccc4)cc3)O2)c(Cl)c1 (stereo not drawn)", "observation_type": "Inhibition", "result": ">100 µg/mL"}

The compound identified as Cc1ccc(C2(Cn3ccnc3)OCC(c3ccc(Cl)cc3)O2)cc1 (stereo not drawn) registered its Inhibition at >100 µg/mL

The compound identified as Clc1ccc(C2COC(Cn3ccnc3)(c3ccccc3)O2)cc1 (stereo not drawn) registered its Inhibition at >100 µg/mL

----------
- Test system: Candida tropicalis
- method_notes: Antifungal activity against Candida tropicalis
- Assay type: functional
// reported Inhibition for each item listed

Worked examples follow.
{"compound": "Brc1ccc(C2COC(Cn3ccnc3)(c3ccccc3)O2)cc1 (stereo unspecified)", "Inhibition": ">100 µg/mL"}
{"compound": "Clc1ccc(C2COC(Cn3ccnc3)(c3ccc(Br)cc3)O2)c(Cl)c1 (stereo unspecified)", "Inhibition": ">100 µg/mL"}
{"compound": "Cc1ccc(C2COC(Cn3ccnc3)(c3ccc(Cl)cc3)O2)cc1 (stereo unspecified)", "Inhibition": ">100 µg/mL"}
{"compound": "Cc1ccc(C2(Cn3ccnc3)OCC(c3ccc(Br)cc3)O2)cc1 (stereo unspecified)", "Inhibition": ">100 µg/mL"}
{"compound": "Cc1ccc(CC2COC(Cn3ccnc3)(c3ccc(Cl)cc3Cl)O2)cc1 (stereo unspecified)", "Inhibition": ">100 µg/mL"}

Moving on to another compound below.
The compound identified as Clc1ccc(C2(Cn3ccnc3)OCC(c3ccccc3Cl)O2)cc1 (stereo unspecified) registered its Inhibition at >100 µg/mL

----------
- System: Candida albicans
- method_notes: Antifungal activity against Candida albicans
- Format: functional
// reported Inhibition for each item listed
Please respond with the number in µg/mL and leave the unit unwritten.

{"molecule": "Clc1ccc(C2(Cn3ccnc3)OCC(Cc3ccc(Br)cc3)O2)c(Cl)c1 (centres undefined)", "assayed_system": "Candida albicans", "observation_type": "Inhibition", "measure_unit": "µg/mL", "numeric_readout": 10}
{"molecule": "Fc1ccc(CC2COC(Cn3ccnc3)(c3ccc(Cl)cc3Cl)O2)cc1 (centres undefined)", "assayed_system": "Candida albicans", "observation_type": "Inhibition", "measure_unit": "µg/mL", "numeric_readout": 100}
{"molecule": "Cc1ccc(C2COC(Cn3ccnc3)(c3ccc(Br)cc3)O2)cc1 (centres undefined)", "assayed_system": "Candida albicans", "observation_type": "Inhibition", "measure_unit": "µg/mL", "numeric_readout": 10}
{"molecule": "Clc1ccccc1C1COC(Cn2ccnc2)(c2ccc(Br)cc2)O1 (centres undefined)", "assayed_system": "Candida albicans", "observation_type": "Inhibition", "measure_unit": "µg/mL", "numeric_readout": 100}

Moving on to another molecule below.
The molecule identified as Clc1ccc(COC(Cn2ccnc2)c2ccc(Cl)cc2Cl)c(Cl)c1 (centres undefined) registered its Inhibition at 10

Taken from ChEMBL document CHEMBL1121748.
